Recorded MIC values for a group of compounds are listed next.
tested on: Stenotrophomonas maltophilia; assay: Tested for antibacterial activity as minimum inhibitory concentration against Pseudomonas maltophilia 1057 in the presence of polymyxin B nonapeptide (PBMN) at 0 ug/mL; type: functional
Value kind: MIC

* O=c1c(O)c(-c2cc(O)cc(O)c2)oc2cc(O)cc(O)c12 | > 125 µg/mL
* O=c1cc(-c2ccccc2)oc2c(O)c(O)ccc12 [7,8-DIHYDROXYFLAVONE] | > 125 µg/mL
* COc1ccc(-c2oc3cc(O)cc(O)c3c(=O)c2O)cc1 [KAEMPFERIDE] | > 125 µg/mL
* O=c1c(O)c(-c2ccccc2)oc2cc(O)cc(O)c12 [GALANGIN] | > 125 µg/mL
* CC1COc2c(N3CCN(C)CC3)c(F)cc3c(=O)c(C(=O)O)cn1c23 (stereo not given) [OFLOXACIN] | 2 µg/mL
* O=c1c(O)c(-c2ccccc2)oc2ccccc12 [FLAVONOL] | > 125 µg/mL
* CCn1cc(C(=O)O)c(=O)c2ccc(C)nc21 [NALIDIXIC ACID] | 62.5 µg/mL
* COc1cccc(-c2cc(=O)c3c(O)cc(O)cc3o2)c1 | > 125 µg/mL
* O=c1oc2c(O)c(O)cc3c(=O)oc4c(O)c(O)cc1c4c23 [ELLAGIC ACID] | > 125 µg/mL
* O=c1c(O)c(-c2cc(O)c(O)c(O)c2)oc2cc(O)cc(O)c12 [MYRICETIN] | > 125 µg/mL
